Recorded values, source ChEMBL document CHEMBL6083208.

# Test system: BaF3
# protocol_text: Antiproliferative activity against mouse BaF3 cells harbouring Bcr-Abl T315I assessed of cell viability at 2 uM incubated for 72 hrs by Celltiter-glo luminescent cell viability assay relative to control
# Assay type: functional
endpoint_name: inhibition at 2 µM (%)

> print(dat)
                               given.smiles  value
1  CC(C)(C)OC[C@H](NC(=O)c1cccc(-c2ccc(NS(C)(=O)=O)nc2)c1)C(=O)Nc1ccc(Cl)c(C(F)(F)F)c1   0.62
2  CC(C)(C)OC[C@H](NC(=O)c1cccc(-c2cncc(C(=O)NC3CC3)c2)c1)C(=O)Nc1ccc(Cl)c(C(F)(F)F)c1   1.93
3  CC(C)(C)C(=O)Nc1ccc(-c2cccc(C(=O)N[C@@H](CO)C(=O)Nc3ccc(Cl)c(C(F)(F)F)c3)c2)cn1   0.99
4  CC(C)(C)C(=O)Nc1cc(-c2ccc(C(=O)N[C@@H](CO)C(=O)Nc3ccc(Cl)c(C(F)(F)F)c3)cc2)ccn1    0.2
5  CC(C)(C)OC[C@H](NC(=O)c1ccc(-c2ccnc(NS(C)(=O)=O)c2)cc1)C(=O)Nc1ccc(Cl)c(C(F)(F)F)c1   7.49

* * *

Reported IC50 values follow for various compounds
# experimental_system: Bcr/Abl fusion protein (Homo sapiens, UniProt P00519)
# Sequence (P00519 whole entry, the tested form may be a part): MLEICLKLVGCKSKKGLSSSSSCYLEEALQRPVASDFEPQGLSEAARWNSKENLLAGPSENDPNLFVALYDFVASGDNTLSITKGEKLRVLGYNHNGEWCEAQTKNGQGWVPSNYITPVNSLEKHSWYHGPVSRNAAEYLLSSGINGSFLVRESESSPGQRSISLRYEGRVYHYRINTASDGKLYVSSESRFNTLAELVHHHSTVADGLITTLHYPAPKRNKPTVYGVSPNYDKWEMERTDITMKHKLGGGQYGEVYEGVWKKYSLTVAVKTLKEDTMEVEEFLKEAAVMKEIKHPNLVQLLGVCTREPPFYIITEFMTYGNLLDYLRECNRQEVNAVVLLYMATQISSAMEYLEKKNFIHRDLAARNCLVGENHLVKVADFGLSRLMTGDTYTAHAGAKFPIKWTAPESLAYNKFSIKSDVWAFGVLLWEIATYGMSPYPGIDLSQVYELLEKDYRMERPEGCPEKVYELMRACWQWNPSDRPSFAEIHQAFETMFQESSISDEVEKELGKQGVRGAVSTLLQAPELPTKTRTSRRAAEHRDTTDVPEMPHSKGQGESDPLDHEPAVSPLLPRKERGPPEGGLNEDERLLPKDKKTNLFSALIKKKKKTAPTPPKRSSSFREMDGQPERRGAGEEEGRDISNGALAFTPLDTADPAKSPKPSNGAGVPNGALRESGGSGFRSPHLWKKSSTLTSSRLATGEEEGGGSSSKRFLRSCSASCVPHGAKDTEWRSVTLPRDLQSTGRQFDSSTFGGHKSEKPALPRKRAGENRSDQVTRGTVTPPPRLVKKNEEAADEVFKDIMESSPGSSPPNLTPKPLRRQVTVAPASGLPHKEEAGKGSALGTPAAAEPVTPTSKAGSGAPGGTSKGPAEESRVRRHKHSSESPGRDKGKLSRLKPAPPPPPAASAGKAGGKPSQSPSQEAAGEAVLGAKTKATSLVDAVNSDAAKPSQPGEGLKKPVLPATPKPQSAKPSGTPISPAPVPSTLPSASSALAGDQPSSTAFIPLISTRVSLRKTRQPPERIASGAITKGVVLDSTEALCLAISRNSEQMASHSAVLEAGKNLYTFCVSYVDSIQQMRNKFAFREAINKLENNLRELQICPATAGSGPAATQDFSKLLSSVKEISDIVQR
# Sequence (P11274 whole entry, further chain, the tested form may be a part): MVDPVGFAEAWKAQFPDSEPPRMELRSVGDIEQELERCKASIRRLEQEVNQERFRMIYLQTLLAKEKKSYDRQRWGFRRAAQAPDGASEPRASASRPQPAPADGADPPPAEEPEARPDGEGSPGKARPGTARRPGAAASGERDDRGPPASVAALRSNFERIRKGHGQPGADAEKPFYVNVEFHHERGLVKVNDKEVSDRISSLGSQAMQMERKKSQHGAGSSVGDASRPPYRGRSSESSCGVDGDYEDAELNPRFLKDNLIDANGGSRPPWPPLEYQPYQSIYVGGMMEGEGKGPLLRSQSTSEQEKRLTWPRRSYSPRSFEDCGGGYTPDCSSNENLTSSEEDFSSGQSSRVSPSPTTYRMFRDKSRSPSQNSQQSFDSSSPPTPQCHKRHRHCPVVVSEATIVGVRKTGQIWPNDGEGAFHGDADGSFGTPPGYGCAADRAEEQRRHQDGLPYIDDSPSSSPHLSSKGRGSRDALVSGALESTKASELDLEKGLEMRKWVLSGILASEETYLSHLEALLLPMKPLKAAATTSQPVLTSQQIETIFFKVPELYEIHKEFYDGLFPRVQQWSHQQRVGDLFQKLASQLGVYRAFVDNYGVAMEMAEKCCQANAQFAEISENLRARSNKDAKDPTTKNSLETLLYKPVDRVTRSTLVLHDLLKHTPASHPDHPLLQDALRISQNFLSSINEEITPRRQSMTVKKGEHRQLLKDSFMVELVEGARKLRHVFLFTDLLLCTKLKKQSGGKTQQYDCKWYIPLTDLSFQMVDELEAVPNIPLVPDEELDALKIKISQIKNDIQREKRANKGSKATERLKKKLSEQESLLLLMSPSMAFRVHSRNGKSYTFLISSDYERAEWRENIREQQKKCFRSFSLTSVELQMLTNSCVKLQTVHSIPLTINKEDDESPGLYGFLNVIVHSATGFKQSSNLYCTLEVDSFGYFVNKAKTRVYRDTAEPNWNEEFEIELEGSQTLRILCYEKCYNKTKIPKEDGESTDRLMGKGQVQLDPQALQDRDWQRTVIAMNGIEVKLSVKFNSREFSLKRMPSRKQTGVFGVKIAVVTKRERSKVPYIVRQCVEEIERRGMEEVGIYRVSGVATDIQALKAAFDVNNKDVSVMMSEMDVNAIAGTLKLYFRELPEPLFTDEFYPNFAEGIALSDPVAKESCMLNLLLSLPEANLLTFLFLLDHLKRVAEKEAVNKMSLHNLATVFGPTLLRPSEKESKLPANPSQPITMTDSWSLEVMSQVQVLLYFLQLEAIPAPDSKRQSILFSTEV
# protocol_text: Inhibition of wild type Bcr-Abl (unknown origin) using Abltide as substrate incubated for 1 hr by luminescence based ADP-glo assay
endpoint_name: IC50

> print(dat)
                               given.smiles    value
1  CC(C)(C)[C@H](NC(=O)c1ccc(-c2cncc(C(=O)NC3CC3)c2)cc1)C(=O)Nc1ccc(Cl)c(C(F)(F)F)c1  8.02 nM
2  CC(C)(C)OC[C@H](NC(=O)c1cccc(-c2ccc(NS(C)(=O)=O)nc2)c1)C(=O)Nc1ccc(Cl)c(C(F)(F)F)c1  10.6 nM
3  CCN(CC)C(=O)c1cncc(-c2cccc(C(=O)N[C@H](C(=O)Nc3ccc(Cl)c(C(F)(F)F)c3)C(C)(C)C)c2)c1  6.69 nM
4  O=C(NC1CC1)c1cncc(-c2cccc(C(=O)N[C@@H](CO)C(=O)Nc3ccc(Cl)c(C(F)(F)F)c3)c2)c1  1.35 nM
5  CC(=O)Nc1ccc(-c2cccc(C(=O)N[C@H](C(=O)Nc3ccc(Cl)c(C(F)(F)F)c3)C(C)(C)C)c2)cn1  7.26 nM
6  CC(C)(C)C(=O)Nc1cc(-c2ccc(C(=O)N[C@H](C(=O)Nc3ccc(Cl)c(C(F)(F)F)c3)C(C)(C)C)cc2)ccn1  16.8 nM
